- Tested on: Zymoseptoria tritici
- ASSAY_SUMMARY: Leaf blotch of wheat (SEPTTR) disease control on wheat seedlings
- Format: in vivo
- ASSAY_CONDITIONS: HV application at 100 ppm; 1 Day Protectant; wheat leaf blotch
PARAMETER_MEASURED: SEPTTR 1DP disease control rating, HV activity

{"COMPOUND": "CCCC(Oc1ccccc1)C(C)OC(=O)C(C)NC(=O)c1nccc(OC)c1O (stereo not shown)", "ENDPOINT_RESULT": "A (> 80)"}
{"COMPOUND": "CC[C@H](Cc1ccccc1)[C@@H](OCC(C)C)[C@H](C)OC(=O)[C@H](C)NC(=O)c1nccc(OC)c1O", "ENDPOINT_RESULT": "A (> 80)"}
{"COMPOUND": "CC(NC(=O)c1ncccc1O)C(=O)OC(C)C(Oc1ccccc1)C(C)C (stereo not shown)", "ENDPOINT_RESULT": "A (> 80)"}
{"COMPOUND": "COc1ccnc(C(=O)NC(C)C(=O)OC(C)C(Oc2cccc3ccccc23)C(C)C)c1O (stereo not shown) [Cmpd 434]", "ENDPOINT_RESULT": "A (> 80)"}
{"COMPOUND": "CCCOC(CC)C(Oc1ccccc1)C(C)OC(=O)C(NC(=O)c1nccc(OC)c1OC(C)=O)C(C)C (stereo not shown)", "ENDPOINT_RESULT": "B (≤ 80)"}
{"COMPOUND": "COc1ccnc(C(=O)N[C@@H](C)C(=O)O[C@@H](C)[C@H](Oc2ccccc2)C2CCCC2)c1O", "ENDPOINT_RESULT": "A (> 80)"}
{"COMPOUND": "COc1ccnc(C(=O)NC(C)C(=O)OC(C)C(Oc2ccccc2)c2cccs2)c1O (stereo not shown)", "ENDPOINT_RESULT": "A (> 80)"}
{"COMPOUND": "CCC(CC)[C@@H](Oc1ccc(F)cc1)[C@H](C)OC(=O)[C@@H](NC(=O)c1nccc(OC)c1O)C(C)C", "ENDPOINT_RESULT": "B (≤ 80)"}
{"COMPOUND": "C=CCC(Oc1ccc(Cl)cc1Cl)C(C)OC(=O)C(C)NC(=O)c1nccc(OC)c1O (stereo not shown)", "ENDPOINT_RESULT": "B (≤ 80)"}
{"COMPOUND": "CCC(CC)[C@@H](Oc1ccc(C(F)(F)F)cc1)[C@H](C)OC(=O)[C@@H](NC(=O)c1nccc(OC)c1O)C(C)C", "ENDPOINT_RESULT": "B (≤ 80)"}
{"COMPOUND": "CCC(C)C(NC(=O)c1nccc(OC)c1O)C(=O)OC(C)C(Oc1cc(F)ccc1F)C(C)C (stereo not shown)", "ENDPOINT_RESULT": "B (≤ 80)"}
{"COMPOUND": "CCCO[C@@H]([C@H](C)OC(=O)[C@H](C)NC(=O)c1nccc(OC)c1O)[C@H](CC)Oc1ccccc1", "ENDPOINT_RESULT": "D"}
{"COMPOUND": "C=CC(OCCC)C(Oc1ccccc1)C(C)OC(=O)C(C)NC(=O)c1nccc(OC)c1OC(C)=O (stereo not shown)", "ENDPOINT_RESULT": "A (> 80)"}
{"COMPOUND": "CCC(CC)C(Oc1cc(F)cc(Cl)c1)C(C)OC(=O)C(C)NC(=O)c1nccc(OC)c1O (stereo not shown) [Cmpd 383]", "ENDPOINT_RESULT": "B (≤ 80)"}
{"COMPOUND": "COc1ccnc(C(=O)N[C@@H](C)C(=O)O[C@@H](C)COC(=O)C(C)C)c1O", "ENDPOINT_RESULT": "B (≤ 80)"}
{"COMPOUND": "CCCOC(CC)C(Oc1ccccc1)C(C)OC(=O)C(NC(=O)c1nccc(OC)c1OCOC(C)=O)C(C)CC (stereo not shown)", "ENDPOINT_RESULT": "A (> 80)"}
{"COMPOUND": "CCC(CC)[C@@H](Oc1cc(F)cc(Cl)c1)[C@H](C)OC(=O)[C@@H](NC(=O)c1nccc(OC)c1O)C(C)C", "ENDPOINT_RESULT": "B (≤ 80)"}
{"COMPOUND": "CCCOC(CC)C(Oc1ccccc1)C(C)OC(=O)C(NC(=O)c1nccc(OC)c1O)C(C)C (stereo not shown)", "ENDPOINT_RESULT": "B (≤ 80)"}
{"COMPOUND": "COc1ccnc(C(=O)N[C@@H](C)C(=O)O[C@@H](C)[C@H](Oc2ccc(Cl)cc2Cl)C2CCCC2)c1O", "ENDPOINT_RESULT": "D"}
{"COMPOUND": "COc1ccnc(C(=O)NC(C)C(=O)OC(C)C(Oc2ccc(C(F)(F)F)cc2)C(C)C)c1O (stereo not shown)", "ENDPOINT_RESULT": "A (> 80)"}
{"COMPOUND": "COc1ccnc(C(=O)N[C@@H](C)C(=O)O[C@H](C)[C@@H](Oc2ccccc2)c2ccccc2)c1O", "ENDPOINT_RESULT": "D"}
{"COMPOUND": "CCCOC(CC)C(Oc1ccccc1)C(C)OC(=O)C(NC(=O)c1nccc(OC)c1OC(C)=O)C(C)CC (stereo not shown)", "ENDPOINT_RESULT": "B (≤ 80)"}
